Recorded values, source patent US20050250794A1.

- target desc: human SirT1 (Homo sapiens, UniProt Q96EB6)
- Construct: purchased Biomol SE-239
- Sequence (Q96EB6 whole entry): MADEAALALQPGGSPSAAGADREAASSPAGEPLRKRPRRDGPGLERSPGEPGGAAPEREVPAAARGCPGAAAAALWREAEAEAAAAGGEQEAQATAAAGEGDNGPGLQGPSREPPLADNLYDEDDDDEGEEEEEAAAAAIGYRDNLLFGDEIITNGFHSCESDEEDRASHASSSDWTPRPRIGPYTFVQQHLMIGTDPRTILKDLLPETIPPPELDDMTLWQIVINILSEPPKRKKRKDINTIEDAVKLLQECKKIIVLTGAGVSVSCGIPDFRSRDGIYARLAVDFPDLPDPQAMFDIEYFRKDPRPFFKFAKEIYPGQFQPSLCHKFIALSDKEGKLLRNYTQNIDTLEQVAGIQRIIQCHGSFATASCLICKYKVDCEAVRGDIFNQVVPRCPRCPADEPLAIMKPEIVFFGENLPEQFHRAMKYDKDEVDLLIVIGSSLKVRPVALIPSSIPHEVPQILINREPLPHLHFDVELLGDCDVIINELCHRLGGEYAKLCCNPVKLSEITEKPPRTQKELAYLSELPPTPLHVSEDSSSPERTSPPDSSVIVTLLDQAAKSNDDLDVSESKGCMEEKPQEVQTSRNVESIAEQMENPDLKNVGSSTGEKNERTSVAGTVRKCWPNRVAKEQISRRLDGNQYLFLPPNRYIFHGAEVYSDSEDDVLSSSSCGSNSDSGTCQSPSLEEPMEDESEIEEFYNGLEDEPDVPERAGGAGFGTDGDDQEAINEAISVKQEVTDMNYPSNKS
- method summary: SirT1 Fluor de Lys enzymatic deacetylase assay
- Format: biochemical
- condition set: Table 3, p53-382 Fluor de Lys substrate; read-out: SirT1 p53-382-FdL IC50
- From the text: An exemplary assay method includes a 1536 well format of the SirT1 enzymatic assay that is based on the commercial “Fluor-de-Lys” assay principle by Biomol, which is fluorogenic (www.biomol.com/store/Product_Data_PDFs/ak500.pdf). […] Fluorescence can be read on a commercial macroscopic reader. […]
assay metric: IC50

Some solved cases for reference:
Exam item: I am curious: what IC50 value has been reported for "CC(C)CC(=O)Nc1sc2c(c1C(N)=O)CCCCCC2" ?
Marked response: > 10 µM

Exam item: I am curious: what IC50 value has been reported for CCC1CCc2c(sc(N)c2C(N)=O)C1 (stereo not drawn) ?
Marked response: > 10 µM

---
Exam item: I am curious: what IC50 value has been reported for CC1CCc2c(sc(N)c2C(N)=O)C1 (stereo not drawn) ?
Marked response: > 10 µM
